β-amyloid (AD brain homogenates) (Homo sapiens, UniProt P05067) pKi data
Sequence (P05067 672-711 limits assumed): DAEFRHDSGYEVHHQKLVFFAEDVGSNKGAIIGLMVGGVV
pKi: −log10 of the molar value.

compound: COc1ccc2nc(-c3ccc4nc(-c5ccc(N)cc5)sc4c3)sc2c1 [Compound 13]
pKi: 7.44 to 8.17
//
compound: Nc1ccc(-c2nc3ccc(-c4nc5ccccc5s4)cc3s2)cc1 [Compound 10]
pKi: 7.44 to 8.17
//
compound: Nc1ccc(-c2nc3ccc(-c4nc5ccc(Cl)cc5s4)cc3s2)cc1 [Compound 11]
pKi: 7.44 to 8.17
//
compound: Nc1ccc(-c2nc3ccc(-c4nc5ccc(F)cc5s4)cc3s2)cc1 [Compound 12]
pKi: 7.44 to 8.17
//
compound: CNc1ccc(-c2nc3ccc(-c4nc5ccc(F)cc5s4)cc3s2)cc1 [Compound 16]
pKi: 7.44 to 8.17
//
compound: CNc1ccc(-c2nc3ccc(-c4nc5ccccc5s4)cc3s2)cc1 [Compound 14]
pKi: 7.44 to 8.17
//
compound: CN(C)c1ccc(-c2nc3ccc(-c4nc5ccc(F)cc5s4)cc3s2)cc1 [Compound 17]
pKi: 7.44 to 8.17
//
compound: CNc1ccc(-c2nc3ccc(-c4nc5ccc(Cl)cc5s4)cc3s2)cc1 [Compound 15]
pKi: 7.44 to 8.17
//
compound: Nc1ccc(-c2nc3ccc(-c4nc5ccccc5s4)cc3s2)cc1I [Compound 18]
pKi: 7.44 to 8.17
